Consider the following binders and their measured % Inhibition of JEG-3 cell invasion, 1 µg/ml (further test) readings.
target: T1, MMP-26 (human); assay: cell-based or functional assay
T1 sequence: ASDF
Write the value in % as a bare number.

binder	numeric value
D04 (antibody, human IgG4, V domains shown) VH: EVQLLESGGGLVQPGGSLRLSCAASGFTFSDYQMMWVRQAPGKGLEWVSRISPSGGMTRYADSVKGRFTISRDNSKNTLYLPMNSLRAEDTAVYYCARSGPYYFDYWGQGTLVTVSS VL: DIQMTQSPSSLSASVGDRVAITCRASQSIDTYLNWYQQKPGKAPKLLIYAASKLEDGVPSRFSGSGTGTDFTLTIRSLQPEDFASYFCQQSYSSPGITFGPGTKVEIKR	47

Now look at this entry.
Challenge: Item under review: H6-orig (antibody, human IgG4, V domains shown) VH: EVQLLESGGGLVQPGGSLRLSCAASGFTFSQYWMNWVRQAPGKGLEWVSGIGPSGGITYYADSVKGRFTISRDNSKNTLYLQMNSLRAEDTAVYYCARGEEDGYNSDYWGQGTLVTVSS VL: QSELTQPPSASGSPGQSVTISCTGTSSDVGAYNYVSWYQQHPGKAPKLIIYEVNKRPSGVPDRFSASKSGNTASLTVSGLQAEDEADYYCNSYAGSNSLIFGGGTKLTVLG . Reported % Inhibition of JEG-3 cell invasion, 1 µg/ml (further test)?
Response given: 49
